method.description: in vivo
test.settings: Balb/c, mouse, po, 5 mg/kg
Listed here are compounds together with their documented half-life at 24 h.
# value in h; strip the unit string

Worked examples follow.
CC(C)(C)NC(=O)CN1Cc2ccc(-c3nc(NC4CCOCC4)ncc3Cl)cc2C1=O    1
O=C(CN1Cc2ccc(-c3nc(NC4CCOCC4)ncc3Cl)cc2C1=O)NCc1ccccc1    1

Per the record, C[C@H](C(=O)N[C@H](CO)c1ccccc1)N1Cc2ccc(-c3nc(NC4CCOCC4)ncc3Cl)cc2C1=O has half-life at 24 h of 0.7

----------
method.description: in vitro
test.settings: human, Caco-2
Binary classification by Papp at 1 h, 10 µM, with 10 ×10⁻⁶ cm/s as an inclusive lower bound for 1.0; all other cases are 0.0.

COCCN1Cc2ccc(-c3nc(NC4CCOCC4)ncc3Cl)cc2C1=O    1.0
C[C@H](C(=O)N[C@H](CO)c1ccccc1)N1Cc2ccc(-c3nc(NC4CCOCC4)ncc3Cl)cc2C1=O    1.0
CN(C(=O)CN1Cc2ccc(-c3nc(NC4CCOCC4)ncc3Cl)cc2C1=O)C(C)(C)C    1.0
Cc1cccc([C@@H](CO)NC(=O)[C@@H](C)N2Cc3ccc(-c4nc(NC5CCOCC5)ncc4Cl)cc3C2=O)c1    0.0
O=C1c2cc(-c3nc(NC4CCOCC4)ncc3Cl)ccc2CN1CCN1CCOCC1    1.0

// inclusive: Papp at 1 h, 10 µM at least 10 ×10⁻⁶ cm/s? input: CC(C)(C)NC(=O)CN1Cc2ccc(-c3nc(NC4CCOCC4)ncc3Cl)cc2C1=O
1.0

Papp at 1 h, 10 µM >= 10 ×10⁻⁶ cm/s for O=C(CN1Cc2ccc(-c3nc(NC4CCOCC4)ncc3Cl)cc2C1=O)NC(CO)c1ccccc1 (single isomer, unassigned) ?
0.0

----------
method.description: in vivo
test.settings: Balb/c, mouse, po, 5 mg/kg
Measured half-life at 24 h, listed per entry.
Unit h implied. Number only.

CN(C(=O)CN1Cc2ccc(-c3nc(NC4CCOCC4)ncc3Cl)cc2C1=O)C(C)(C)C    0.7
O=C(CN1Cc2ccc(-c3nc(NC4CCOCC4)ncc3Cl)cc2C1=O)NC(CO)c1ccccc1 (single isomer, unassigned)    3
COCCN1Cc2ccc(-c3nc(NC4CCOCC4)ncc3Cl)cc2C1=O    1
Cc1cccc([C@@H](CO)NC(=O)[C@@H](C)N2Cc3ccc(-c4nc(NC5CCOCC5)ncc4Cl)cc3C2=O)c1    0.8

Here is another molecule to look at.
Record O=C1c2cc(-c3nc(NC4CCOCC4)ncc3Cl)ccc2CN1CCN1CCOCC1 , field half-life at 24 h: 2

----------
method.description: in vivo
test.settings: Balb/c, mouse, po, 5 mg/kg
quantity: AUC at 24 h
Please provide the amount together with its unit, number first.

Some solved entries appear below for comparison.
C[C@H](C(=O)N[C@H](CO)c1ccccc1)N1Cc2ccc(-c3nc(NC4CCOCC4)ncc3Cl)cc2C1=O    2600 ng·h/mL
CN(C(=O)CN1Cc2ccc(-c3nc(NC4CCOCC4)ncc3Cl)cc2C1=O)C(C)(C)C    5900 ng·h/mL

Item: O=C(CN1Cc2ccc(-c3nc(NC4CCOCC4)ncc3Cl)cc2C1=O)NC(CO)c1ccccc1 (single isomer, unassigned) | AUC at 24 h: 3000 ng·h/mL

Kindly note the recorded AUC at 24 h for O=C1c2cc(-c3nc(NC4CCOCC4)ncc3Cl)ccc2CN1CCN1CCOCC1 , which is 1800 ng·h/mL

Noted for O=C(CN1Cc2ccc(-c3nc(NC4CCOCC4)ncc3Cl)cc2C1=O)NCc1ccccc1 : its AUC at 24 h reads 6900 ng·h/mL

# AUC at 24 h (compound: Cc1cccc([C@@H](CO)NC(=O)[C@@H](C)N2Cc3ccc(-c4nc(NC5CCOCC5)ncc4Cl)cc3C2=O)c1 ) is 3700 ng·h/mL

The compound listed as CC(C)(C)NC(=O)CN1Cc2ccc(-c3nc(NC4CCOCC4)ncc3Cl)cc2C1=O has a reported AUC at 24 h of 530 ng·h/mL

In plain terms, COCCN1Cc2ccc(-c3nc(NC4CCOCC4)ncc3Cl)cc2C1=O has a documented AUC at 24 h of 50 ng·h/mL

----------
method.description: in vivo
test.settings: Balb/c, mouse, iv, 0.5 mg/kg
quantity: log10 of Vd at 24 h (log10 of the value in L/kg)
Values below are the log10 of the recorded Vd at 24 h, with L/kg as the unit.

For orientation, consider the following solved cases.
O=C(CN1Cc2ccc(-c3nc(NC4CCOCC4)ncc3Cl)cc2C1=O)NCc1ccccc1    -0.70
CN(C(=O)CN1Cc2ccc(-c3nc(NC4CCOCC4)ncc3Cl)cc2C1=O)C(C)(C)C    -1.00
O=C(CN1Cc2ccc(-c3nc(NC4CCOCC4)ncc3Cl)cc2C1=O)NC(CO)c1ccccc1 (single isomer, unassigned)    -0.22
Cc1cccc([C@@H](CO)NC(=O)[C@@H](C)N2Cc3ccc(-c4nc(NC5CCOCC5)ncc4Cl)cc3C2=O)c1    -0.22
COCCN1Cc2ccc(-c3nc(NC4CCOCC4)ncc3Cl)cc2C1=O    -1.30
O=C1c2cc(-c3nc(NC4CCOCC4)ncc3Cl)ccc2CN1CCN1CCOCC1    -0.70

log10 of Vd at 24 h reported for this compound CC(C)(C)NC(=O)CN1Cc2ccc(-c3nc(NC4CCOCC4)ncc3Cl)cc2C1=O : -0.70

Per the records, this compound ( C[C@H](C(=O)N[C@H](CO)c1ccccc1)N1Cc2ccc(-c3nc(NC4CCOCC4)ncc3Cl)cc2C1=O ) has log10 of Vd at 24 h equal to 0.00
